test system: TNIK; conditions: concentration: 1 μM, replicates: in singlicate; n = 1;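 further: KINOMEscan kinase panel screen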
Catalogue of compounds with associated %Inh
Assay metric: %Inh (%)

1. COc1cc2c(Nc3cccc(NC(=O)c4ccccc4)c3)ncnc2cc1OCCCN1CCOCC1 | 0
2. Cl.Cn1ccc(-c2cccc(Nc3ccnc4cc(-c5nccs5)ccc34)c2)n1 | 50
3. COc1ccc(Nc2nccc(N3CCC(NC(=O)c4cccc(NC(C)=O)c4)C3)n2)cc1 (stereo not shown) | 0
4. O=C(CCO)NCCn1ccc2ncnc(Nc3ccc(Oc4cccc(C(F)(F)F)c4)c(Cl)c3)c21 | 0

* * *

test system: GRK7; settings: concentration: 1 μM, replicates: in singlicate; n = 1
Assay metric: %Inh (%)

1. COc1cc2ncnc(Nc3ccc(OCc4ccccc4Br)c(Cl)c3)c2cc1OC.Cl [GI261590] | 0
2. Cc1cccc(-c2nc(Nc3ccc4[nH]nnc4c3)c3ccccc3n2)n1 [GW867587] | 0
3. CCC(CC)(CC)n1cnc2c(N)ncnc21 [SKF-97620] | 14
4. Clc1cccc(-c2nc(Nc3ccncc3)c3ccccc3n2)c1 [GW873004] | 0
5. COc1ccc(Nc2nccc(N3CCC(NC(=O)c4cccc(NC(C)=O)c4)C3)n2)cc1 (stereo not shown) [GSK1379732] | 0
6. Cn1ccc2ncnc(Nc3ccc(Oc4cccc(Cl)c4)c(Cl)c3)c21 | 20
7. COc1ccc(-c2oc3ncnc(N)c3c2-c2ccc(OC)cc2)cc1 [SB-589132] | 0
8. CS(=O)(=O)CCNCc1nc(-c2ccc3ncnc(Nc4ccc(OCc5cccc(F)c5)c(Cl)c4)c3c2)cs1.Cl [GW583340] | 0
9. c1ccc(-c2ccc3c(-c4ccnc(Nc5ccc6c(c5)OCCO6)n4)cnn3n2)cc1 [GW818941] | 0
10. CSc1nn2c(=O)cc(N3CCOCC3)nc2n1Cc1cccc(Cl)c1Cl [GSK2347225] | 0
